molecular target: Hexose transporter 1 (Plasmodium falciparum) (UniProt O97467); experiment: ST_JUDE_LEISH: Cytotoxicity at 2uM final concentration against transgenic Leishmania Mexicana promastigotes LmPfHT that are glucose transport deficient and complemented with the Plasmodium falciparum hexose transporter. Activity is measured by DNA content using SYBR green in vitro; assay type: functional
Could you please report measured inhibition for the items listed next?
Just the number please, in %, no unit attached.

Req: Any idea what inhibition was measured for O=C1COc2ccc(S(=O)(=O)N3CCC[C@@H]3CCN3CCC(c4c[nH]c5cnccc45)CC3)cc2N1 ?
Resp: 0.68

Req: Any idea what inhibition was measured for Cc1ccccc1C1CCN(C2CCC(NC(=O)c3ccc(-c4ccccc4)s3)CC2)CC1 (centres undefined) ?
Resp: 0.48

Req: Any idea what inhibition was measured for Cn1cncc1CCN(Cc1ccc(-c2ccc(C(F)(F)F)cc2)cc1)C(=O)Cn1c(CCc2cccc(F)c2F)cc(=O)c2cccnc21 ?
Resp: 2.38

Req: Any idea what inhibition was measured for CCCCCCN1CCCN(Cc2ccc(C(=O)Nc3ccc(CCC)cc3)cc2)CC1 ?
Resp: 7.71

Req: Any idea what inhibition was measured for COc1ccc2ncc(F)c(CCN3CCC(CNCc4cccc5c4OCO5)CC3)c2n1 ?
Resp: 1.39

Req: Any idea what inhibition was measured for Cc1cc2nc(-c3ccc(/C=C/C(=O)NCc4ccc(Cl)c(Cl)c4)cc3)[nH]c2cc1C ?
Resp: 8.06

Req: Any idea what inhibition was measured for Fc1ccc(-c2oc(C3CCN(CCc4ccc(-c5noc(=S)[nH]5)cc4)CC3)nc2COCC(F)(F)F)cc1 ?
Resp: 7.22

Req: Any idea what inhibition was measured for CN1CCN(Cc2cc(NC(=O)c3ccc(-c4ccc(Cl)cc4Cl)cc3)ccc2-c2ccccc2)CC1 ?
Resp: 2.47

Req: Any idea what inhibition was measured for Cc1cc(C(=O)CN2C(=O)NC(C)(c3ccc4ccccc4c3)C2=O)c(C)n1Cc1ccco1 (centres undefined) ?
Resp: -1.11

Req: Any idea what inhibition was measured for COc1ccc(CNCc2ccc(F)cc2)cc1-c1ccc(S(=O)(=O)NCCN2CCCC2)cc1 ?
Resp: 6.73

Req: Any idea what inhibition was measured for CC(CNC(=O)c1cc2c(Cl)cc(Cl)cc2[nH]1)CNc1cc(=O)c2ccccc2[nH]1 (centres undefined) ?
Resp: 1.37

Req: Any idea what inhibition was measured for CC(C)(C)c1ccc(CNC(=O)c2cc(CNC3CCNCC3)ccc2O)cc1 ?
Resp: 1.01

Req: Any idea what inhibition was measured for COc1ccc2nccc([C@@H](O)CN3CCC(NCc4ccc5scnc5c4)CC3)c2c1 ?
Resp: 2.6

Req: Any idea what inhibition was measured for CCn1c(CN2CCC(C)CC2)nc2cc(NC(=O)c3cccs3)ccc21 ?
Resp: 9.8

Req: Any idea what inhibition was measured for Cc1ccc(O)cc1Nc1ccnc2cc(-c3csc(CN(C)CCN(C)C)n3)ccc12 ?
Resp: -0.87

Req: Any idea what inhibition was measured for O=S(=O)(Nc1ccc(CCN2CCC(N3CCCCC3)CC2)cc1)c1ccc2ccccc2c1 ?
Resp: 11.2

Req: Any idea what inhibition was measured for CCN1CCN(c2cc(C)c3cc(NC(=O)c4ccc(N(CC)CC)cc4)ccc3n2)CC1 ?
Resp: 2.18

Req: Any idea what inhibition was measured for CC(C)c1ccc(NC(=O)Nc2ccc(CCNCCCc3ccccc3)cc2)cc1 ?
Resp: 0.01

Req: Any idea what inhibition was measured for Clc1ncccc1-c1nc(NCCC(c2ccccc2)c2ccccc2)no1 ?
Resp: 2.24

Source listed as ChEMBL document CHEMBL3433997.
